// data source = PubChem BioAssay (NCI)

test-details: NCI Yeast Anticancer Drug Screen. Data for the mec2-1 strain (AID 157)
condition-details: S. cerevisiae mec2-1 strain, at 5.0 µM (retest, dose inferred, filed as 0.5)
This is part of a sample that, as a whole, favours compounds with a hit. Of some 79,000 tested, about 15% had one in any assay. Calls of active or inactive are those of the source. No stated cut-off is given here; in the data, active means growth inhibition above about 70%; inactive means the rest. Where a SMILES comes first, the peptide text is derived from it. The star is where a group is joined. Trt = c1ccc(C(c2ccccc2)(c2ccccc2)*)cc1; Cbz = O=C(OCc1ccccc1)*
Labels: active, inactive

compound	discrete-label
O=C1NN(C2=NNC3(C(=O)N2)c2ccccc2-c2ccccc23)C(c2ccccc2)=N/C1=C/c1ccc(O)cc1	inactive
COc1ccccc1/C=C\C(=O)c1ccccc1	inactive
O=C(O)C1C(C(=O)O)C23CC2(C(=O)O)C2(C(=O)O)CCC3=C3CCCC312 (configuration not stated)	inactive
Cn1cc(/C=C/[N+](=O)[O-])c2ccc(OCc3ccccc3)cc21	inactive
Cn1cc(NC(=O)c2cc(NC(=O)CCCCCCCC(=O)Nc3cc(C(=O)Nc4cc(C(=O)NCCC(=N)N)n(C)c4)n(C)c3)cn2C)cc1C(=O)NCCC(=N)N	active
O=C(NCCc1c(-c2ccccc2)[nH]c2ccccc12)C(F)(F)F	inactive
COc1ccc(CC2C(=O)NC(C)C(=O)N(C)C3Cc4ccc(cc4)Oc4cc(ccc4O)CC(C(=O)NC(C)C(=O)NC(C)C(=O)N2C)N(C)C3=O)cc1 (configuration not stated)	inactive
c1ccc2c(c1)Nc1cc3ccccc3cc1N2	inactive
CC(=O)O[C@]1(C(C)=O)CC[C@H]2[C@@H]3C[C@H](C)C4=CC(=O)NCC[C@]4(C)[C@H]3CC[C@@]21C	inactive
O=C=Nc1ccccc1-c1ccc([N+](=O)[O-])cc1Cl	inactive
Cc1ccc(S(=O)(=O)Nc2ccc3c(c2)Cc2cc([N+](=O)[O-])ccc2-3)cc1	inactive
Cc1c2c(c(C)c3ccncc13)S(=O)(=O)c1ccccc1-2	inactive
CCOC(=O)[C@]12CCC[C@@]1(O)NC(=O)c1cnccc12	inactive
CC(C)(C)NC1=NC(C(F)(F)F)(C(F)(F)F)NC(=O)N1	inactive
O=C(CNC(=O)c1ccccc1)NNc1ccccc1	inactive
c1cc[c]([Sn]([NH]c2ncnc3[nH]cnc23)([NH]c2ncnc3[nH]cnc23)[c]2ccccc2)cc1	inactive
COCCCNC(=O)SC	inactive
CCCCn1cnc2c(SCc3ccc(F)cc3)nc(N)nc21	inactive
CCN(CC)CCNc1nc(N)c2nc(-c3ccccc3)c(-c3ccccc3)nc2n1	inactive
O=C1c2ccccc2C(=O)c2sc(Nc3cccc(Cl)c3)nc21	active
CCS(CC)(CC)CC1CCCC2=CCC(P(=O)(c3ccccc3)c3ccccc3)CC21 (configuration not stated)	inactive
COc1ccc(/C=C2\CCC(CN(C)C)C2=O)cc1 (configuration not stated)	inactive
C=C1CC(C)(COc2ccc3c(C)c(C)c(=O)oc3c2C)OC1=O (configuration not stated)	inactive
O=C(Nc1cc(Cl)cc(Cl)c1)OCCCl	inactive
CC(C)(CN1CCCCC1)C(=O)/C=C/c1ccc(Cl)c(Cl)c1	inactive
CCCCCCCCOc1ccc(/C=C/C(C)=N/NC(N)=NC)cc1OC	active
CCc1nc(N)nc(N)c1-c1ccc(NCCN)c([N+](=O)[O-])c1	inactive
COC1(CO)C(=O)N(C)CC(=O)N1C (configuration not stated)	inactive
N=C(N)c1ccc2oc3ccc(C(=N)N)cc3c(=O)c2c1	inactive
O=C(CCN1CCCC1)c1ccc(Oc2ccc(F)cc2)cc1	inactive
CC(=O)N=C1N(/C=C2\C(=O)Oc3ccccc3C2=O)C(=O)/C(=C/c2ccco2)N1C	inactive
N#CSCc1c(Cl)cccc1Cl	inactive
CCCNC(=O)OCc1ccc(NCCN(CC)CC)c2c(=O)c3ccccc3sc12	inactive
COC(=O)C(CSC(c1ccccc1)(c1ccccc1)c1ccccc1)NC(=O)C(CC(N)=O)NC(=O)OCc1ccccc1 (stereo not drawn) (Cbz-Asn-Cys(Trt)-OMe; configuration not given here)	inactive
C[C@]12CCC3[C@@H](CC[C@@H]4c5nonc5CC[C@]34C)C1CCC(=O)N2 (some centres not stated)	inactive
ON=C1c2ccccc2-c2ccccc21	inactive
CCc1ccc(-c2ccccc2)cc1	inactive
NC(CCC(=O)NC(CS(=O)(=O)O)C(=O)O)C(=O)O (configuration not stated)	inactive
COC(=O)c1ccc(OC)cc1	inactive
NC(N)=N/N=C/c1ccc([N+](=O)[O-])o1	inactive
CC(C)OC(=O)c1cc([N+](=O)[O-])cc([N+](=O)[O-])c1Sc1ncnc2nc[nH]c12	inactive
CC(=O)O[C@H]1CC[C@H]2[C@@H]3CCc4cc(O)c(I)cc4[C@H]3CC[C@]12C	inactive
